Target: T1, Rim1ΔC18 (Saccharomyces cerevisiae, UniProt P32445 18-117, del118-135)
T1 sequence: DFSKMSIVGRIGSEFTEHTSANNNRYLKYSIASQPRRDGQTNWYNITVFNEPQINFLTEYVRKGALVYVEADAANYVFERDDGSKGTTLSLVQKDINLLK
Experiment: fluorescence anisotropy
QUANTITY: Kd

>  <BINDER>
3'F-T70 (ssDNA) DNA: TTTTTTTTTTTTTTTTTTTTTTTTTTTTTTTTTTTTTTTTTTTTTTTTTTTTTTTTTTTTTTTTTTTTTT

>  <QUANTITY>
Kd

>  <RESULT>
< 1 nM

$$$$
